Biological target: human ether-à-go-go-related gene (hERG) potassium channel (human, UniProt Q12809)
Sequence (Q12809 whole entry, looked up): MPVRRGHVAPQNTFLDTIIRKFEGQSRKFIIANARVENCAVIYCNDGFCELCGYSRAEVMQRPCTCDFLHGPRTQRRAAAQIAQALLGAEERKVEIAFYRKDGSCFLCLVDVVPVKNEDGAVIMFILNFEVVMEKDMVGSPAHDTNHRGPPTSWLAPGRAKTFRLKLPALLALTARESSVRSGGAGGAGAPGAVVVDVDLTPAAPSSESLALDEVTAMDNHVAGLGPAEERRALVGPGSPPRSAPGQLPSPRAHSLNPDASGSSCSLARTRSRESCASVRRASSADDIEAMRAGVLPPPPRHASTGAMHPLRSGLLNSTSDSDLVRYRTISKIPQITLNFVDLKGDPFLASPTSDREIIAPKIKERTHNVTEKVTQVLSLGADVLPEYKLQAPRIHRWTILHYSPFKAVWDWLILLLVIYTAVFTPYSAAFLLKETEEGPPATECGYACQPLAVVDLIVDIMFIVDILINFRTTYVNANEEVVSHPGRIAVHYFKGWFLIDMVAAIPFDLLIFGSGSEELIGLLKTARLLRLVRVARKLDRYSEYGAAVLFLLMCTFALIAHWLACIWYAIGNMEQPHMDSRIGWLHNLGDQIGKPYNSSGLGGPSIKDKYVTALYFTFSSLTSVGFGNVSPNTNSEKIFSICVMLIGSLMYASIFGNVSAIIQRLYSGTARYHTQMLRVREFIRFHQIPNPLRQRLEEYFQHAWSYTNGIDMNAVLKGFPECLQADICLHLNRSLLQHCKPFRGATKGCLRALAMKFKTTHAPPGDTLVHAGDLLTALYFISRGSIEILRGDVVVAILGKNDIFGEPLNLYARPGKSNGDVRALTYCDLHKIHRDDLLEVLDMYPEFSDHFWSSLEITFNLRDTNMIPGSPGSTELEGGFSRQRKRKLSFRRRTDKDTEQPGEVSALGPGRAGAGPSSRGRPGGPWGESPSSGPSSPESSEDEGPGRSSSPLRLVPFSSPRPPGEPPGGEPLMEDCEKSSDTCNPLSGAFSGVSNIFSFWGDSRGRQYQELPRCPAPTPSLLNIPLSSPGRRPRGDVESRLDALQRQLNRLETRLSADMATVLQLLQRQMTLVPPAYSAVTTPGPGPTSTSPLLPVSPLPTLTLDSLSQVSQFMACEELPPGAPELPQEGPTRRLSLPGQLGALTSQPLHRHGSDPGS
Experiment: primary screen, population patch clamp on CHO cells stably expressing hERG; higher = less effect of the substance
The campaign covered roughly 310,000 compounds. About 14,000 (4.5%) showed an effect of 50% or more. The effect is printed as a negative number. The full list was thinned out, with strong results kept by preference.
List of hERG current change (%, negative = inhibition) at 10uM values.
Give your result in % as a bare value.

Req: Value wanted: hERG current change (%, negative = inhibition) at 10uM (human ether-à-go-go-related gene (hERG) potassium channel (human, UniProt Q12809)) of entry Nn1c(COc2ccccc2F)nnc1SCC(=O)NC1CCS(=O)(=O)C1 (centres unmarked)
Resp: -7.72

Req: Value wanted: hERG current change (%, negative = inhibition) at 10uM (human ether-à-go-go-related gene (hERG) potassium channel (human, UniProt Q12809)) of entry Cn1c(SCc2nc(-c3ccc(Br)cc3)no2)nnc1-c1ccco1
Resp: -49.6

Req: Value wanted: hERG current change (%, negative = inhibition) at 10uM (human ether-à-go-go-related gene (hERG) potassium channel (human, UniProt Q12809)) of entry CC(C)Cn1c(=O)c2c(nc3n2CC(C)CN3Cc2ccccc2)n(C)c1=O (centres unmarked)
Resp: -83.3

Req: Value wanted: hERG current change (%, negative = inhibition) at 10uM (human ether-à-go-go-related gene (hERG) potassium channel (human, UniProt Q12809)) of entry Clc1ccc(-c2csc(N/N=C/c3cccnc3)n2)c(Cl)c1
Resp: -11.9

Req: Value wanted: hERG current change (%, negative = inhibition) at 10uM (human ether-à-go-go-related gene (hERG) potassium channel (human, UniProt Q12809)) of entry Cc1ccc(-n2nc3c(=O)n(CC(=O)NCc4ccc(C)o4)nc(C)c3c2C)cc1
Resp: 13.1

Turning to the following compound.
Req: Value wanted: hERG current change (%, negative = inhibition) at 10uM (human ether-à-go-go-related gene (hERG) potassium channel (human, UniProt Q12809)) of entry CCn1c(SCc2nc(-c3ccccc3)no2)nnc1-c1cccs1
Resp: -61.2

* * *

Molecular target: human ether-à-go-go-related gene (hERG) potassium channel (human, UniProt Q12809)
Assay: primary screen, population patch clamp on CHO cells stably expressing hERG; higher = less effect of the substance
The whole screen tested about 310,000 compounds, of which about 14,000 (4.5%) showed an effect of 50% or more. Effects have a minus sign here. This excerpt belongs to a sample that is enriched for strong results.
List of hERG current change (%, negative = inhibition) at 10uM values.
Give your result in % as a bare value.

Example entries begin here.
Req: Recorded hERG current change (%, negative = inhibition) at 10uM of COc1ccc(OC)c2c1cc(C(=O)N[C@@H](C)C(=O)N[C@@H](C(=O)O)c1ccccc1)n2C , please.
Resp: 19.2

Req: Recorded hERG current change (%, negative = inhibition) at 10uM of CCOc1ccccc1C(C(=O)NCCOC)N(CCOC)C(=O)Cn1nnc2ccccc21 (centres unmarked) , please.
Resp: 18.5

More entries:
Req: Recorded hERG current change (%, negative = inhibition) at 10uM of CC1(C)CC(=O)C=C(C(=O)N2CCCC(C(=O)c3cccc(Cl)c3)C2)O1 (centres unmarked) , please.
Resp: -31

Req: Recorded hERG current change (%, negative = inhibition) at 10uM of O=C(CCn1c(=O)oc2ccccc21)NCCCN1CCOCC1 , please.
Resp: 16.9

Req: Recorded hERG current change (%, negative = inhibition) at 10uM of O=C(CCCn1c(=O)oc2ccccc21)N1CCN(c2ccc(F)cc2)CC1 , please.
Resp: -63.9

* * *

List of hERG current change (%, negative = inhibition) at 10uM values.
Target: human ether-à-go-go-related gene (hERG) potassium channel (human);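 note: peak tail current of the secondary pulse compared with the same well before compound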
Experiment: primary screen, population patch clamp on CHO cells stably expressing hERG; higher = less effect of the substance
Among all 310,000 compounds or so, about 14,000 (4.5%) showed an effect of 50% or more. The effect is printed as a negative number. This excerpt belongs to a sample that is enriched for strong results.
Give your result in % as a bare value.

Req: Recorded hERG current change (%, negative = inhibition) at 10uM of O=C(CN1CCN(C(=O)c2ccccc2)CC1)Nc1cc(S(=O)(=O)N2CCCC2)ccc1Cl , please.
Resp: -32.8

Req: Recorded hERG current change (%, negative = inhibition) at 10uM of O=C(CN1CCN(S(=O)(=O)c2ccccc2)CC1)Nc1ccccc1Cl , please.
Resp: -6.93

Req: Recorded hERG current change (%, negative = inhibition) at 10uM of CC(C)C[C@H](NC(=O)NCCC1=CCCCC1)C(=O)O , please.
Resp: -4.82

Turning to the following compound.
Req: Recorded hERG current change (%, negative = inhibition) at 10uM of CCOc1cc(-c2nc(C)c(C(C)=O)n2O)ccc1OCC(=O)Nc1ccccc1 , please.
Resp: -0.49

* * *

Molecular target: human ether-à-go-go-related gene (hERG) potassium channel (human, UniProt Q12809);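 note: peak tail current of the secondary pulse compared with the same well before compound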
Assay: primary screen, population patch clamp on CHO cells stably expressing hERG; higher = less effect of the substance
The whole screen tested about 310,000 compounds, of which about 14,000 (4.5%) showed an effect of 50% or more. The effect is printed as a negative number. The sample as a whole holds a higher share of strong results than the screen did.
List of hERG current change (%, negative = inhibition) at 10uM values.
Give your result in % as a bare value.

Req: Recorded hERG current change (%, negative = inhibition) at 10uM of COc1ccc(CN(C)C(=O)COC(=O)c2ccc3c(c2)OCO3)cc1OC , please.
Resp: -3.84

Req: Recorded hERG current change (%, negative = inhibition) at 10uM of CC(C)C(=O)NC(=S)Nc1ccccc1C(F)(F)F , please.
Resp: 10.4

Req: Recorded hERG current change (%, negative = inhibition) at 10uM of O=C(CSC1=NNC(c2ccccn2)S1)Nc1cccc(Cl)c1 (stereo not shown) , please.
Resp: 12.6

Req: Recorded hERG current change (%, negative = inhibition) at 10uM of O=C(N/N=C/c1ccc[nH]1)c1ccncc1 , please.
Resp: 20.2

* * *

Biological target: human ether-à-go-go-related gene (hERG) potassium channel (human, UniProt Q12809);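 note: peak tail current of the secondary pulse compared with the same well before compound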
Experiment: primary screen, population patch clamp on CHO cells stably expressing hERG; higher = less effect of the substance
Procedure: Briefly, Chinese hamster ovary (CHO) cells stably expressing the hERG channel were dislodged from tissue culture flasks and dispensed into PPC plates. […] During the recording, background leak currents were estimated by a 100 ms step to -80 mV from an initial holding potential of -70 mV and subtracted from the subsequent current measurement. The campaign was conducted in two phases using slight differences in recording protocol. […]
In all, about 310,000 compounds went through this assay and about 14,000 (4.5%) showed an effect of 50% or more. The effect is printed as a negative number. The sample holds strong results, similar compounds and a random draw of the others, so the mix is not that of the screen.
List of hERG current change (%, negative = inhibition) at 10uM values.
Give your result in % as a bare value.

Req: Recorded hERG current change (%, negative = inhibition) at 10uM of O=[N+]([O-])c1cccc(-c2c[n+]3c(n2-c2ccccc2)SCC3)c1.[Br-] , please.
Resp: -42.3

More entries:
Req: Recorded hERG current change (%, negative = inhibition) at 10uM of CCC(=O)Nc1cc(-c2nnc(OC)c3ccccc23)ccc1N1CCOCC1 , please.
Resp: -5.46

Req: Recorded hERG current change (%, negative = inhibition) at 10uM of CC1CCCN(S(=O)(=O)c2cc3c4c(c2)CCN4C(=O)CC3)C1 (stereo not shown) , please.
Resp: -6.07

Req: Recorded hERG current change (%, negative = inhibition) at 10uM of CC1(C)CC(=O)/C(=C(/O)Cc2ccccc2)C(=NCCc2ccccc2)C1 , please.
Resp: -45.2

Req: Recorded hERG current change (%, negative = inhibition) at 10uM of Cc1[nH][nH]c(=O)c1C(c1ccc(O)c(Br)c1)c1c(C)[nH][nH]c1=O , please.
Resp: 4.34

* * *

Target: human ether-à-go-go-related gene (hERG) potassium channel (human, UniProt Q12809);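 note: peak tail current of the secondary pulse compared with the same well before compound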
Test: primary screen, population patch clamp on CHO cells stably expressing hERG; higher = less effect of the substance
Hit rate of the full screen: of about 310,000 compounds, about 14,000 (4.5%) showed an effect of 50% or more. The effect is printed as a negative number. This excerpt belongs to a sample that is enriched for strong results.
measure name: hERG current change (%, negative = inhibition) at 10uM (%)
Give your result in % as a bare value.

Req: Value wanted: hERG current change (%, negative = inhibition) at 10uM (human ether-à-go-go-related gene (hERG) potassium channel (human, UniProt Q12809)) of entry Cl.NCCOc1ccccc1-c1ccccc1
Resp: -11.1

Req: Value wanted: hERG current change (%, negative = inhibition) at 10uM (human ether-à-go-go-related gene (hERG) potassium channel (human, UniProt Q12809)) of entry Cc1cc(Cl)ccc1OCCCC(=O)NC1CCN(C)CC1
Resp: -51.2

Req: Value wanted: hERG current change (%, negative = inhibition) at 10uM (human ether-à-go-go-related gene (hERG) potassium channel (human, UniProt Q12809)) of entry CC(C)Oc1ccc(C(=O)NCC(=O)OCC(=O)N(C)Cc2cccs2)cc1
Resp: -15.9

Req: Value wanted: hERG current change (%, negative = inhibition) at 10uM (human ether-à-go-go-related gene (hERG) potassium channel (human, UniProt Q12809)) of entry Cc1cc(Cl)ccc1OCC(=O)N1CCN(C)CC1
Resp: -12.5

Req: Value wanted: hERG current change (%, negative = inhibition) at 10uM (human ether-à-go-go-related gene (hERG) potassium channel (human, UniProt Q12809)) of entry Cc1c(C(=O)N2CCC3(CC2)OCCO3)sc2ncnc(N3CCc4ccccc4C3)c12
Resp: -33.7

Req: Value wanted: hERG current change (%, negative = inhibition) at 10uM (human ether-à-go-go-related gene (hERG) potassium channel (human, UniProt Q12809)) of entry Cn1c(SCc2cccnc2)nc2c(c1=O)SCC2
Resp: 7.48
